Hey, just so you know, these numbers are from the supplement of paper PMC10201428.

# relative integration efficiency (log2) annotations
Tested on: VchCAST RNA-guided transposition machinery (E. coli BL21(DE3) host, lacZ target)
Experiment: relative integration efficiency (T-RL orientation) vs wild-type transposon end (log2 (normalized fold change)); transposon end mutated: right end (5 bp flank + 75 bp right end); higher = more efficient transposition
PARAMETER: relative integration efficiency (log2)

ACATTTGTTTCTACAACCATAAAATGATAATTACACCCATAAATTGATAATTATCACACCCATAAATTGATATTGCCTCTGATCATAGTCAGACCAACATTGCTACGACCCGTATTCGCACCGACAC; -1.06
ACATTTGCTGATACTACCATTTAATGATAATAACACCCATAAAATGATAATTATCACACCCAATTTAACTATAACGCTCTGATCATAGTCAGACCAACATTGCTACGACCCGTATTCGCACCGACAC; -2.31
ACATTTGTTGATACAACCATAAAATGATAATTATAATTATCATTTTATGGTTGTCATAATTATCATTTTATGGTTGCTCTGATCATAGTCAGACCAACATTGCTACGACCCGTATTCGCACCGACAC; -2.61
ACATTTGTTGATACAACCATATATTGATATCTCCAACCATAAAATGATAATTATCACAACCATAAAATGATAATTACTCTGATCATAGTCAGACCAACATTGCTACGACCCGTATTCGCACCGACAC; -0.172
ACATTTGTTGATACAACCATAAGTTGATATTTTCACCCATAAATTGATAATTATCAGTGGGTATTTAACTATAACGCTCTGATCATAGTCAGACCAACATTGCTACGACCCGTATTCGCACCGACAC; -1

###

Tested on: VchCAST RNA-guided transposition machinery (E. coli BL21(DE3) host, lacZ target)
Assay: relative integration efficiency (T-RL orientation) vs wild-type transposon end (log2 (normalized fold change)); transposon end mutated: right end (5 bp flank + 75 bp right end); higher = more efficient transposition
PARAMETER: relative integration efficiency (log2)

ACATTAGTCGATACAACCATAAAATGATAATTACACCCATAAATTGATAATTATCACACCCAATTTAACTATAACGCTCTGATCATAGTCAGACCAACATTGCTACGACCCGTATTCGCACCGACAC; -7.53
ACATTTGTGGATACAACCCTAAAATGATAATTACACCCATAAATTGATCATTATCACACCCAATTTAACTATAACGCTCTGATCATAGTCAGACCAACATTGCTACGACCCGTATTCGCACCGACAC; -3.19
ACATTTGTTGATACAACCATAAAATGATAATTACACCCATAAATTGATAATTATCACACCCATAAATTGATCTCTGATCATAGTCAGACCAACATTGCTACGACCCGTATTCGCACCGACACTGACT; -0.209

###

System: VchCAST RNA-guided transposition machinery (E. coli BL21(DE3) host, lacZ target)
Test: relative integration efficiency (T-LR orientation) vs wild-type transposon end (log2 (normalized fold change)); transposon end mutated: left end; higher = more efficient transposition
Lab note: class by relative integration efficiency (log2), see low end = under -2, middle = from -2 up to -0.8, high end = -0.8 and over

AATGTTGTTGATGCAACCATAAAGTGATATTTAATAATTATTGCGCCGACTACCAGGCCAACACCCCACCAACGCGCGGTCGCGAGACACCCCACCAACGCCTGGTCGCGGGGGTGTCCGATCTGATTTCAGCAAAACTACTGCAGTAAGAA; low end
AATGTTGTTGATGCAACCATAAAGTGATATTTAATAATTATTTATAATCAGCAACTTAACCACAAAACAACCATATATTGATATACAAAACAACCATAAGTTGATATTTTTGTGAATCGAGTATTTCAGCAAAACTACTGCAGTAAGAAAGT; middle
AATGTTGTTGATGCAACCATAAAGTGATATTTAATAATTATTTATAATCAGCAACTTAACCACAAAACAACCATATATTGATATCTCACAAAAGTTGGTATTCAACTATAAAATGTGAATCGAGTATTTCAGCAAAACTACTGCAGTAAGAA; middle
AATGTTGTTGATGCAACCATAAAGTGATATTTAATAATTATTTATAATCAGCAACTTAACCACAAAACAACCATATATTGATATCTCACAAACACCAACGCCTGGTCGCGGGGGTGTCCGATCTGATTTCAGCAAAACTACTGCAGTAAGAA; high end
AATGTTGTTGAAACAACCATAAAGTGATAACAACGAATCAATTAAAATCATAGGCTTAATCGAAAAACAACCATATCTTGATATCGCATAAAACAACCATAAGTTGATATTTTTGTGAATCGAGTATTTCAGCAAAACTACTGCAGTAAGAA; high end
AATGTTGTTGATGCAACCATAAAGTGATATTTAATAATTATTTATAATCAGCAACTTCAACCATATATTGATATCTCACAAAACAACCATAAGTTGATATTTTTGTGAATCGAGTATTTCAGCAAAACTACTGCAGTAAGAAAGTTACTTCG; middle
AATGTTGTTGATGCAACCATAAAGTGATATTTAATAATTATTTATAATCAGCAACTTAACCACAAAACAACCATATATTGATATAGACACCCCACCAACGCCTGGTCGCGGGGGTGTCCGATCTGATTTCAGCAAAACTACTGCAGTAAGAA; middle
AATGTTGTTGATGCAACCATAAAGTGATATTTAATAATTATTTATAATCAGCAACTTAACCACAAAATGTGAATCGACAACCATATATTGATATCTCACAAAACAACCATAAGTTGATATTTTGTATTTCAGCAAAACTACTGCAGTAAGAA; low end
AATGTTGTTGATGCAACCATAAAGTGATATTTAATAATTATTTATAATCAGCAACTTAACCACAAAACAACCATATATTGATATCTCACAAAACAACCATAAGGGTCGCGGGGGTGTCCGATCTGATTTCAGCAAAACTACTGCAGTAAGAA; middle
